The entries below come with measured Hepatotoxicity (granulomatous hepatitis) values attached.
assayContext: human;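 further: value is a count of indexed literature references reporting granulomatous liver disease confirmed by histopathology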

Param item = N[C@@H](Cc1cc(I)c(Oc2cc(I)c(O)c(I)c2)c(I)c1)C(=O)O ; retrieve measured Hepatotoxicity (granulomatous hepatitis).
0

How about this compound: C=CCC(C(=O)NC(N)=O)C(C)C (stereo not given)
2

How about this compound: COc1ccc(CCN(C)CCCC(C#N)(c2cc(OC)c(OC)c(OC)c2)C(C)C)cc1OC (stereo not given)
0

How about this compound: O=C(COCC(=O)Nc1c(I)cc(I)c(C(=O)O)c1I)Nc1c(I)cc(I)c(C(=O)O)c1I
0

How about this compound: Cc1c(Cl)cccc1Nc1ccccc1C(=O)O
0

How about this compound: O=C1CN=C(c2ccccc2Cl)c2cc([N+](=O)[O-])ccc2N1
0

How about this compound: CN1C(=O)OC(C)(C)C1=O
0

How about this compound: CC(CN(C)C)CN1c2ccccc2CCc2ccccc21 (stereo not given)
0

How about this compound: CN1CCN(C2=Nc3cc(Cl)ccc3Nc3ccccc32)CC1
0

How about this compound: COc1cc(NS(=O)(=O)c2ccc(N)cc2)nc(OC)n1
1
